- TEST SYSTEM: Cytochrome P450 2C9 (Homo sapiens) (UniProt P11712)
- Sequence (P11712 whole entry, looked up): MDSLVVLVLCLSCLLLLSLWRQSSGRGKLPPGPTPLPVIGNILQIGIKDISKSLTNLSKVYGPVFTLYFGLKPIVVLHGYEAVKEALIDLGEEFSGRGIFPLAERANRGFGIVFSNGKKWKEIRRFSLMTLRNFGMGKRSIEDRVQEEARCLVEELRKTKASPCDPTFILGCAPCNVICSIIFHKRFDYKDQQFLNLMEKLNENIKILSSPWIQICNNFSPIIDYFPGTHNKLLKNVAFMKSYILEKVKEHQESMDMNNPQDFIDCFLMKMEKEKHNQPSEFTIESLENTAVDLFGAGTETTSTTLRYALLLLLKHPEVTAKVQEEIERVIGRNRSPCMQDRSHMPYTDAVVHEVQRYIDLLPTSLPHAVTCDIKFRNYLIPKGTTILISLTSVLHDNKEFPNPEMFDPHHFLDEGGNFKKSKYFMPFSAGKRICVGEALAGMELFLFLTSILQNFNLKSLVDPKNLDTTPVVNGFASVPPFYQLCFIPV
- PROTOCOL: Cytochrome P450 family 2 subfamily C member 9 (CYP2C9) small molecule antagonists: luciferase biochemical (cell-free) qHTS assay (AID 1645842); further: nearly all actives have a fitted effect of over 55% in size
- APPLIED CONDITIONS: P450-Glo CYP2C9 enzyme assay, luciferin luminescence; series mostly up to 57.4 µM
Inconclusive results are not listed. Active and inactive are the calls of the source. The call rests on the fitted dose curve; in most records, active means well fitted inhibition curve with a large enough effect in the repeat runs; inconclusive means weak or mixed curves; inactive means no such curve, though single readings can be large or run the other way.
Could you please pick one outcome from this set? active, inactive

Consider the worked cases shown below.
1) NC(=S)N=Nc1ccc(NN=C(N)N)cc1 :: active
2) O=C(O)CCC(=O)c1ccc(-c2ccccc2)cc1 :: inactive
3) CC(C)[C@@H]1CC[C@@H](C)C[C@H]1OC(=O)c1ccccc1O :: inactive
4) NC(=O)OCC(O)COc1ccc(Cl)cc1 (centres undefined) :: inactive
5) CO[C@H]1O[C@@H]2O[C@@]3(C)CC[C@H]4[C@H](C)CC[C@@H]([C@H]1C)[C@@]24OO3 :: active
6) Nc1ccc(N=Nc2ccccc2)c(N)n1 :: active
7) Oc1cc(O)cc(O)c1 :: inactive
8) CN1c2c(nc(N)[nH]c2=O)NCC1CNc1ccc(C(=O)NC(CCC(=O)O)C(=O)O)cc1 (centres undefined) :: inactive

State the result this test recorded for `O=C(CO)[C@@H](O)[C@H](O)[C@@H](O)C(=O)O` .
inactive

State the result this test recorded for CC12CCC(C[N+](C)(CCC[N+](C)(C)C)C1)C2(C)C (centres undefined) .
inactive

State the result this test recorded for `CCCCCCCCCCCCCCCCCC[N+](C)(C)CCC[Si](OC)(OC)OC` .
inactive

State the result this test recorded for `C[C@H](O)CN(C)C` .
inactive

State the result this test recorded for COC(=O)C(CN)c1c[nH]c2ccc(OC)cc12 (centres undefined) .
inactive

State the result this test recorded for CC(C)(C)c1ccc(CN2CCN(C(c3ccccc3)c3ccc(Cl)cc3)CC2)cc1 (centres undefined) .
inactive

State the result this test recorded for CCC(O)c1ccccc1 (centres undefined) .
inactive

State the result this test recorded for `C[C@H]1O[C@@H](O[C@H]2[C@@H](O)C[C@H](O[C@H]3[C@@H](O)C[C@H](O[C@H]4CC[C@@]5(C)[C@H](CC[C@@H]6[C@@H]5C[C@@H](O)[C@]5(C)[C@@H](C7=CC(=O)OC7)CC[C@]65O)C4)O[C@@H]3C)O[C@@H]2C)C[C@H](O)[C@@H]1O` .
inactive

State the result this test recorded for `CCOc1ccc(S(=O)(=O)O)c2cccnc12` .
inactive

State the result this test recorded for `C[C@H](NCCc1ccc(O)cc1)[C@H](O)c1ccc(O)cc1` .
inactive

State the result this test recorded for `Nc1nc(=O)n([C@@H]2CS[C@H](CO)O2)cc1F` .
inactive

Data origin, for the record: PubChem BioAssay (NCATS)
